ASSAY_SUMMARY: physchem
COND: buffer, pH 4
QUANTITY_KIND: solubility at 24 h

Would you mind telling me what solubility at 24 h value was observed for CN1CCC(C#CC#Cc2cc3n(c2)C(=O)N(CC[C@](C)(C(=O)NO)S(C)(=O)=O)C3)CC1 ?
> 780 µg/mL

Same question, C[C@@](CCN1Cc2cc(C#CC#CC3(CN)CC3)cn2C1=O)(C(=O)NO)S(C)(=O)=O this time
> 730 µg/mL

Same question, C[C@@](CCN1Cc2cc(C#CC#C[C@H]3C[C@@H]3[C@@H](O)CO)cn2C1=O)(C(=O)NO)S(C)(=O)=O this time
> 780 µg/mL

Same question, CN1CC(C#CC#Cc2cc3n(c2)C(=O)N(CC[C@](C)(C(N)=O)S(C)(=O)=O)C3)C1 this time
> 700 µg/mL

Same question, C[C@@](CCN1Cc2cc(C#CC#CC3(F)CNC3)cn2C1=O)(C(=O)NO)S(C)(=O)=O this time
> 740 µg/mL

Same question, CCN1CC(C#CC#Cc2cc3n(c2)C(=O)N(CC[C@](C)(C(=O)NO)S(C)(=O)=O)C3)C1 this time
> 750 µg/mL

Same question, CC(C)(O)CN1CC(C#CC#Cc2cc3n(c2)C(=O)N(CC[C@](C)(C(=O)NO)S(C)(=O)=O)C3)C1 this time
> 830 µg/mL

Same question, CN1CC(C#CC#Cc2cc3n(c2)C(=O)N(CC[C@](C)(C(=O)NO)S(C)(=O)=O)C3)C1 this time
> 730 µg/mL

Same question, C[C@@](CCN1Cc2cc(C#CC#CC3CN(CCO)C3)cn2C1=O)(C(=O)NO)S(C)(=O)=O this time
> 780 µg/mL

Same question, C[C@@](CCN1Cc2cc(C#CC#CCN3CCC(O)CC3)cn2C1=O)(C(=O)NO)S(C)(=O)=O this time
> 810 µg/mL
